Reference source: ChEMBL document CHEMBL1150440

Target: Cholecystokinin receptor type A (Homo sapiens, UniProt P32238)
Sequence (P32238 whole entry): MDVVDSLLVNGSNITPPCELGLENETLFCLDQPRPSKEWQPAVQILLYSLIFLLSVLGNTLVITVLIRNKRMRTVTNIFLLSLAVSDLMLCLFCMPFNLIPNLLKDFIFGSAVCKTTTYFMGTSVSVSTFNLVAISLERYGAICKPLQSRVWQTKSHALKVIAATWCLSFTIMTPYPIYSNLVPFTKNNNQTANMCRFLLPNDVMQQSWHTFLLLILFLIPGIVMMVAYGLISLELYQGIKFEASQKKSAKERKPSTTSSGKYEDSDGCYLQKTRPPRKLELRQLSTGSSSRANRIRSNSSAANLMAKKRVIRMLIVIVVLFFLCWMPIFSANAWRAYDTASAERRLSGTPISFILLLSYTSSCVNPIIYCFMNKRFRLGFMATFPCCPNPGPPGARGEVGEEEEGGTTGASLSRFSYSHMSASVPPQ
Test: Compound was tested for its binding affinity towards Cholecystokinin type A receptor in pancreatic membranes
pIC50: −log10 of the molar value. Non-standard residues stand in square brackets, D forms with d. Residues, ends and D or L forms follow the SMILES beside them. NMeNle = CCCC[C@H](NC)C(=O)O
Measured property: pIC50

Q) Quick one: pIC50 of CCCCC(C(=O)OCc1ccccc1)n1nnnc1C(Cc1cn(C(=O)OCc2ccccc2)c2ccccc12)NC(=O)OCc1ccccc1 (stereo not drawn) ?
A) < 5.00

Q) Now try CCCC[C@@H](C(=O)N[C@@H](CC(=O)O)[C@@H](Cc1ccccc1)C(N)=O)n1nnnc1[C@H](Cc1c[nH]c2ccccc12)NC(=O)CN .
A) < 5.00

Q) Now try CCCC[C@@H](C(=O)N[C@@H](CC(=O)O)C(=O)N[C@@H](Cc1ccccc1)C(N)=O)N(C)C(=O)[C@H](Cc1c[nH]c2ccccc12)NC(=O)CN (H-GW[NMeNle]DF-NH2) .
A) < 5.00
